Tested on: blackgrass
Assay: Test B postemergence herbicide test
Format: in vivo, Alopecurus myosuroides
Settings: postemergence, 125 g ai/ha; visual rating, scale 0 (no effect) to 100 (complete control)
Method: At the same time, plants selected from these crop and weed species and also blackgrass (Alopecurus myosuroides Huds.), wheat (Triticum aestivum L.) and wild oat (Avena fatua L.) were treated with postemergence applications of test chemicals formulated in the same manner. […] Treated plants and controls were maintained in a greenhouse for 13 to 15 days, after which time all species were compared to controls and visually evaluated. […]
Parameter: Blackgrass plant response rating. Scope: all listed entries.

Some entries whose results are on file:
CCN(C)C(=O)c1ccc(F)c(NC(=O)c2cc(C(C)(C)C)nn2CC)n1 ... 20
CCn1nc(C(C)(C)C)cc1C(=O)Nc1cccc(C(=O)N(C)OC)n1 ... 0

Return reported Blackgrass plant response rating for target or system blackgrass, item Cc1nn(C(C)(C)C)cc1C(=O)Nc1cccc(OC(C)C)c1 .
0

Return reported Blackgrass plant response rating for target or system blackgrass, item CCN(CC)C(=O)c1ccnc(NC(=O)c2cc(C(C)(C)C)nn2CC)c1 .
10

Return reported Blackgrass plant response rating for target or system blackgrass, item CCn1nc(C(C)(C)C)cc1C(=O)Nc1cccc(OCCCF)c1 .
0

----------
Test system: large crabgrass
Test: Test C pre-/postemergence herbicide test
Format: in vivo, Digitaria sanguinalis
Settings: 125 g ai/ha; scale 0 (no effect) to 100 (complete control); visual, 12 to 14 days; preemergence
Measure name: Plant response rating, Crabgrass, Large
Give the figure by itself; no unit, no explanation.

C=CCNC(=O)c1cccc(NC(=O)c2cc(C(C)(C)C)nn2C)n1 ... 50

Indicate its recorded Plant response rating, Crabgrass, Large; the compound in question is CCN(CC)C(=O)c1cccc(NC(=O)c2sc(C(C)(C)C)nc2C)c1
90

Indicate its recorded Plant response rating, Crabgrass, Large; the compound in question is CCc1nc(C(C)(C)C)sc1C(=O)Nc1cccc(C(=O)NCC2CC2)c1
80

Indicate its recorded Plant response rating, Crabgrass, Large; the compound in question is CCNC(=O)c1cccc(NC(=O)c2cc(C(C)(C)C)nn2CC)n1
70

Indicate its recorded Plant response rating, Crabgrass, Large; the compound in question is CCCCOc1cccc(NC(=O)c2cc(C(C)(C)C)nn2CC)c1
70

Indicate its recorded Plant response rating, Crabgrass, Large; the compound in question is CC(=O)c1cccc(NC(=O)c2cc(C(C)(C)C)nn2CCF)c1
100

----------
Parameter: Velvetleaf plant response rating. Scope: all listed entries.
Test system: velvetleaf
Assay: Test A pre-/postemergence herbicide test
Type: in vivo, Abutilon theophrasti
Details: Preemergence, 2000 g ai/ha; visual rating, 0 to 100 scale (0 no effect, 100 complete control)

CC(=NO)c1cccc(NC(=O)c2cn(C(C)C)nc2C)c1 ... 15
CCN(C(C)=O)C(=O)c1ccc(F)c(NC(=O)c2cc(C(C)(C)C)nn2CC)c1 ... 35

Return reported Velvetleaf plant response rating for target or system velvetleaf, item CCOC(=O)c1cccc(NC(=O)c2sc(C(C)(C)C)nc2CC)c1 .
25

Return reported Velvetleaf plant response rating for target or system velvetleaf, item C=CCNC(=O)c1cccc(NC(=O)c2cc(C(C)(C)C)nn2C)n1 .
80

Return reported Velvetleaf plant response rating for target or system velvetleaf, item CCn1nc(C(C)(C)C)cc1C(=O)Nc1cc(C(=O)NC(C)(C)C)ccn1 .
60

Return reported Velvetleaf plant response rating for target or system velvetleaf, item CCN1CCc2c(NC(=O)c3cc(C(C)(C)C)nn3CC)cccc2C1=O .
70

Return reported Velvetleaf plant response rating for target or system velvetleaf, item C#CCNC(=O)c1cc(NC(=O)c2cc(C(C)(C)C)nn2CC)ccn1 .
15

----------
System: morningglory
Assay: Test C pre-/postemergence herbicide test
Assay type: in vivo, Ipomoea coccinea
Parameters: key: 0 = no effect, 100 = complete control
Conditions: 62 g ai/ha; preemergence; scale 0 to 100
Measure name: Plant response rating, Morningglory
Give the figure by itself; no unit, no explanation.

Some entries whose results are on file:
CCNC(=S)c1cccc(NC(=O)c2nn(C(C)(C)C)nc2C)c1 ... 10
CCN(CC)C(=O)c1ccnc(NC(=O)c2cc(C(C)(C)C)nn2CC)c1 ... 0
CCc1nn(C(C)C)nc1C(=O)Nc1cccc(C(=O)N(C)CC)c1 ... 55
CCn1nc(C(C)(C)C)cc1C(=O)Nc1cc(C(=O)N(C)OC)ccc1F ... 0
CCc1nc(C(C)(C)C)sc1C(=O)Nc1cccc(C(=O)NCC2CC2)c1 ... 0

Return reported Plant response rating, Morningglory for target or system morningglory, item C=CCNC(=O)c1cccc(NC(=O)c2cc(C(C)(C)C)nn2C)n1 .
0

----------
Tested on: bermudagrass
Assay: Test C pre-/postemergence herbicide test
Assay type: in vivo, Cynodon dactylon
Details: 62 g ai/ha; preemergence
Description: […]
We label by threshold. Values of Plant response rating (0 = no effect, 100 = complete control), Bermudagrass strictly beneath 50 are Yes. Values of 50 and up are No.

C=CCn1nc(C(C)(C)C)cc1C(=O)Nc1cccc(C(=O)NCC)c1 ... No

Bench note: check whether CCNC(=O)c1cccc(NC(=O)c2cc(C(C)(C)C)nn2CC)n1 shows Plant response rating (0 = no effect, 100 = complete control), Bermudagrass below 50
No

Bench note: check whether CCNC(=O)c1cccc(NC(=O)c2cc(C(C)(C)C)nn2CC(F)(F)F)c1 shows Plant response rating (0 = no effect, 100 = complete control), Bermudagrass below 50
Yes

Bench note: check whether CCOC(=O)c1cc(NC(=O)c2cc(C(C)(C)C)nn2CC)ccc1OCC shows Plant response rating (0 = no effect, 100 = complete control), Bermudagrass below 50
No

Bench note: check whether C#CCNC(=O)c1cccc(NC(=O)c2cc(C(C)(C)C)nn2CC)n1 shows Plant response rating (0 = no effect, 100 = complete control), Bermudagrass below 50
Yes

----------
Parameter: Plant response rating, Crabgrass, Large. Scope: all listed entries.
Tested on: large crabgrass
Assay: Test A pre-/postemergence herbicide test
Type: in vivo, Digitaria sanguinalis
Conditions: Postemergence, 500 g ai/ha; 0 to 100 scale, 0 no effect, 100 complete control
Give the figure by itself; no unit, no explanation.

CCn1nc(C(C)(C)C)cc1C(=O)Nc1cc(C(=O)OC(C)(C)C)ccc1F [Compound 71] ... 0

Indicate its recorded Plant response rating, Crabgrass, Large; the compound in question is CCN1CCc2c(NC(=O)c3cc(C(C)(C)C)nn3CC)cccc2C1=O [Compound 63]
40

Indicate its recorded Plant response rating, Crabgrass, Large; the compound in question is CCn1nc(C(C)(C)C)cc1C(=O)Nc1cccc(C(=O)NC2CC2)c1 [Compound 44]
55

Indicate its recorded Plant response rating, Crabgrass, Large; the compound in question is CCNC(=O)c1cccc(NC(=O)c2cc(C(C)(C)C)nn2CCF)c1 [Compound 35]
55

Indicate its recorded Plant response rating, Crabgrass, Large; the compound in question is CCn1nc(C(C)(C)C)cc1C(=O)Nc1cccc(C(=O)NC(C)C)c1 [Compound 51]
30

----------
Tested on: johnsongrass
Assay: Test C pre-/postemergence herbicide test
Format: in vivo, Sorghum halepense
Details: 125 g ai/ha; scale 0 (no effect) to 100 (complete control); visual, 12 to 14 days; preemergence
Parameter: Plant response rating, Johnsongrass. Scope: all listed entries.
Give the figure by itself; no unit, no explanation.

Some entries whose results are on file:
C#CCNC(=O)c1cccc(NC(=O)c2cc(C(C)(C)C)nn2CC)n1 [Compound 147] ... 40
C=CCNC(=O)c1cccc(NC(=O)c2cc(C(C)(C)C)nn2C)n1 [Compound 318] ... 0
C=CCn1nc(C(C)(C)C)cc1C(=O)Nc1cccc(C(=O)NCC)c1 [Compound 56] ... 70
CCn1nc(C(C)(C)C)cc1C(=O)Nc1cc(C(=O)N(C)OC)ccc1F [Compound 244] ... 95

Indicate its recorded Plant response rating, Johnsongrass; the compound in question is CCn1nc(C(C)(C)C)cc1C(=O)Nc1cccc(C(=O)NC2CC2)c1 [Compound 44]
30

Indicate its recorded Plant response rating, Johnsongrass; the compound in question is CCN1N=C(C(C)(C)C)CC1C(=O)Nc1cc(C(=O)N2CC=CC2)ccc1F (racemic) [Compound 310]
10

----------
System: rice
Test: Test B flooded paddy test
Assay type: in vivo, Oryza sativa
Conditions: 1000 g ai/ha, visual rating, scale 0 to 100 (0 no effect, 100 complete control), 13 to 15 days
Measure name: Rice plant response rating
Give the figure by itself; no unit, no explanation.

CCOc1cccc(NC(=O)c2cn(C(C)(C)C)nc2C)c1 ... 0

Indicate its recorded Rice plant response rating; the compound in question is CCN(CC)C(=O)c1ccnc(NC(=O)c2cc(C(C)(C)C)nn2CC)c1
60

Indicate its recorded Rice plant response rating; the compound in question is CCOC(=O)c1cccc(NC(=O)c2sc(C(C)(C)C)nc2CC)c1
30

Indicate its recorded Rice plant response rating; the compound in question is C=Cn1nc(C(C)(C)C)cc1C(=O)Nc1cccc(C(=O)N(CC)CC)c1
50

Indicate its recorded Rice plant response rating; the compound in question is C#CCNC(=O)c1cccc(NC(=O)c2cc(C(C)(C)C)nn2CC)n1
50

Indicate its recorded Rice plant response rating; the compound in question is CCCCOc1cccc(NC(=O)c2cc(C(C)(C)C)nn2CC)c1
20

Indicate its recorded Rice plant response rating; the compound in question is Cc1nn(C(C)(C)C)cc1C(=O)Nc1cccc(OC(C)C)c1
40

Indicate its recorded Rice plant response rating; the compound in question is CCc1nn(C(C)(C)C)cc1C(=O)Nc1cc(C(=O)N(C)CC)ccc1F
90
